Conditions: in isopropanol, 313.15 K
test-readout: solubility (mole fraction)
Answer field: number only, no words.

*Q* Provide one value: measured solubility (mole fraction) of `NC(N)=NC(N)=NCCc1ccccc1`
*A* 0.00288

----------
Details: in n-butanol, 313.15 K
test-readout: solubility (mole fraction)
Answer field: number only, no words.

*Q* Provide one value: measured solubility (mole fraction) of `NC(N)=NC(N)=NCCc1ccccc1`
*A* 0.00227

----------
Conditions: in isobutanol, 323.15 K
test-readout: solubility (mole fraction)
Answer field: number only, no words.

*Q* Provide one value: measured solubility (mole fraction) of `NC(N)=NC(N)=NCCc1ccccc1`
*A* 0.00265

----------
Conditions: in methanol, 288.15 K
test-readout: solubility (mole fraction)
Answer field: number only, no words.

*Q* Provide one value: measured solubility (mole fraction) of `NC(N)=NC(N)=NCCc1ccccc1`
*A* 0.00328

----------
Conditions: in ethyl acetate, 308.15 K
test-readout: solubility (mole fraction)
Answer field: number only, no words.

*Q* Provide one value: measured solubility (mole fraction) of `NC(N)=NC(N)=NCCc1ccccc1`
*A* 0.00445

----------
Settings: in ethanol, 298.15 K
test-readout: solubility (mole fraction)
Answer field: number only, no words.

*Q* Provide one value: measured solubility (mole fraction) of `NC(N)=NC(N)=NCCc1ccccc1`
*A* 0.00378

----------
Conditions: in methanol, 298.15 K
test-readout: solubility (mole fraction)

*Q* Provide one value: measured solubility (mole fraction) of `NC(N)=NC(N)=NCCc1ccccc1`
*A* 0.00457

----------
Conditions: in isobutanol, 303.15 K
test-readout: solubility (mole fraction)

*Q* Provide one value: measured solubility (mole fraction) of `NC(N)=NC(N)=NCCc1ccccc1`
*A* 0.00139

----------
Conditions: in water, 283.15 K
test-readout: solubility (mole fraction)
Answer field: number only, no words.

*Q* Provide one value: measured solubility (mole fraction) of `NC(N)=NC(N)=NCCc1ccccc1`
*A* 0.000481

----------
Conditions: in ethylene glycol, 278.15 K
test-readout: solubility (mole fraction)
Answer field: number only, no words.

*Q* Provide one value: measured solubility (mole fraction) of `NC(N)=NC(N)=NCCc1ccccc1`
*A* 0.0033

----------
Settings: in DMF, 308.15 K
test-readout: solubility (mole fraction)

*Q* Provide one value: measured solubility (mole fraction) of `NC(N)=NC(N)=NCCc1ccccc1`
*A* 0.0411

----------
Conditions: in methanol, 303.15 K
test-readout: solubility (mole fraction)
Answer field: number only, no words.

*Q* Provide one value: measured solubility (mole fraction) of `NC(N)=NC(N)=NCCc1ccccc1`
*A* 0.00532

----------
Settings: in ethyl acetate, 293.15 K
test-readout: solubility (mole fraction)

*Q* Provide one value: measured solubility (mole fraction) of `NC(N)=NC(N)=NCCc1ccccc1`
*A* 0.00265

----------
Conditions: in NMP, 283.15 K
test-readout: solubility (mole fraction)
Answer field: number only, no words.

*Q* Provide one value: measured solubility (mole fraction) of `NC(N)=NC(N)=NCCc1ccccc1`
*A* 0.014

----------
Settings: in ethanol, 323.15 K
test-readout: solubility (mole fraction)

*Q* Provide one value: measured solubility (mole fraction) of `NC(N)=NC(N)=NCCc1ccccc1`
*A* 0.00847

----------
Details: in DMF, 283.15 K
test-readout: solubility (mole fraction)
Answer field: number only, no words.

*Q* Provide one value: measured solubility (mole fraction) of `NC(N)=NC(N)=NCCc1ccccc1`
*A* 0.0191
